tested on: LZK; construct: gene MAP3K13; conditions: concentration: 1 μM, replicates: in singlicate; n = 1;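 also: KINOMEscan kinase panel screen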
PROPERTY: %Inh (%)
Report as a plain number; the unit % is understood.

| COMPOUND | PROPERTY | MEASURED_RESULT |
| --- | --- | --- |
| Cn1cncc1-c1cc2c(Nc3ccc(OCc4ccccc4)cc3)ncnc2cn1 [GW281179] | %Inh | 0 |
| CCn1c(-c2c(N)noc2C)nc2cnccc21 [SB-737856] | %Inh | 0 |

Problem: Looking for the measured %Inh of CN1c2ccc(-c3ccc(C(N)=O)cc3)cc2-c2[nH]ncc2S1(=O)=O , can you help?
Result: 0

Problem: Looking for the measured %Inh of COc1cc2ncnc(Nc3cccc(Br)c3)c2cc1OC.Cl [GI230329] , can you help?
Result: 38
